Study system: T1, fHbp m002416 (Neisseria meningitidis, fHbp v3.28/v1.1 …, point mutant)
T1 construct: also called fHbp 2,416; Round 2 best mutant
T1 chain: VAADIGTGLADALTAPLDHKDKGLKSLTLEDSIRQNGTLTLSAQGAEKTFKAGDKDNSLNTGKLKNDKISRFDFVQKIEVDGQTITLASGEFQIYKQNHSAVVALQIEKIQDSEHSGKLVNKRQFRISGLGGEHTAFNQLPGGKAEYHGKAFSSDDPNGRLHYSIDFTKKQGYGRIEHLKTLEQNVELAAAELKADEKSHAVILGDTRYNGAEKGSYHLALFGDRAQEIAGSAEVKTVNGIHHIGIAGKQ
Assay explanation: BLI
Applied conditions: both partners purified
Kd: recorded values
The answer is to be given in nM; state only the numeric part.

Known results for binders:
Which Kd value belongs to chimeric antibody hJAR5 (antibody, V domains shown) VH: QVQMQQPGAELVKPGASVKLSCKASGYTFISYWMHWVKQRPGRGLEWIGRIAPDTGIIYYNEKFKNKATLTVDTPSSTAYMQLNSLTSEDSAVYYCARYLKYDGSTYRFDYWGQGTTLTVSS VL: DIVMTQAAPSVPVTPGESVSISCRSSKSLLHSNGNTYLFWFLQRPGQSPQLLIYRMSNLASGVPDRFSGSGSGTSFTLRISRVEAEDVGVYYCMQHLEYPYTFGGGTKLEIK ?
0.631

Which Kd value belongs to chimeric antibody h12C1 (antibody, V domains shown, also called humanized 12C1 mAb; source: Expi293, transient transfection, purified (MabSelect SuRe, SEC)) VH: QVQLQESGPELVKPGASVKISCKASGYSFSDYNMSWVKQSNGKSLEWIGIIDPKYGTINYNQKFKGKATLTVDQASSTAYMQLNSLTSEDSAVYYCVRDYYGSSYFDYWGQGTTLTVSS VL: DIVLTQSPSSIYASLGERVTLTCKASQDIHNYLNWFQQKPGKSPKTLIYRANRLVDGVPSRFSGGGSGQDYSLTISSLEFEDIGIYYCLQYDEFPPTFGGGTRLEIK ?
0.293

Next:
Which Kd value belongs to human mAb 1E6 (antibody, V domains shown, source: Expi293, transient transfection, purified (MabSelect SuRe, SEC)) VH: EVQLVQSGAEVKKPGSSVKVSCKASGGTVIDYPITWVRQAPGQGLEWVGGFVPLFRTSNYGQKFQGRVTITADKSTSTASMELNSLTSEDTAIYYCARGDTAMGPFDYWGQGTLVTVSS VL: SYVLTQPPSLSVAPGKTATLTCGGNNIAGKTVHWYQQRPGQAPVLVISYDSDRPSGIPERFSGSNSANTATLTISRVEAGDEADYYCQVWDRNSDHWVFGGGTKLTVL ?
0.32

Which Kd value belongs to human mAb 4B3 (antibody, V domains shown, source: Expi293, transient transfection, purified (MabSelect SuRe, SEC)) VH: QVQLVQSGGGLVKPGGSLRLSCAASGFPFSSYYMSWIRQAPGKGLEWVSDINNSGNVKEYADFVKGRLTISRDNVKNSMYLHMNSLRVEDTAVYYCARNRGRFDVWGQGTLVTVSA VL: EIVMTQSPGTLSLSPGETATLSCRASQMISSPFLAWYQQRRGQAPRLLIYGASTRATDTPDRFRGSGSGTDFILTISRLEPEDFAVYYCQYYDDSPFTFGQGTKLEIK ?
3.8
